Would you kindly list MIC for each of these compounds?
- Test system: Aspergillus fumigatus
- assayDetails: Minimum inhibitory concentration against Aspergillus fumigatus
- Format: functional

CCCCCCCCCCCCNCC(O)COCC1O[C@@H]2OC(C)(C)O[C@@H]2[C@H]2OC(C)(C)O[C@@H]12 (stereo not given in full) | 6.25 µg/mL

Give measured MIC for every item shown.
1. CC1(C)O[C@@H]2OC(COCC(O)CNCCCNCC(O)COCC3O[C@@H]4OC(C)(C)O[C@@H]4[C@H]4OC(C)(C)O[C@@H]34)[C@H]3OC(C)(C)O[C@H]3[C@@H]2O1 (stereo not given in full)
2. CC(=O)N1CCN(c2ccc(OC[C@H]3CO[C@](Cn4ccnc4)(c4ccc(Cl)cc4Cl)O3)cc2)CC1 [KETOCONAZOLE]
3. CC1(C)O[C@@H]2OC(COCC(O)CNCCCCCCCCCNCC(O)COCC3O[C@@H]4OC(C)(C)O[C@@H]4[C@H]4OC(C)(C)O[C@@H]34)[C@H]3OC(C)(C)O[C@H]3[C@@H]2O1 (stereo not given in full)
4. CCCCCCCC/C=C/CCCCCCCCNCC(O)COCC1O[C@@H]2OC(C)(C)O[C@@H]2[C@H]2OC(C)(C)O[C@@H]12 (stereo not given in full)

Output:
["> 50 µg/mL", "0.25 µg/mL", "> 50 µg/mL", "50 µg/mL"]

Fill in MIC for each of the 6 compounds listed.
1. CC1(C)O[C@@H]2OC(COCC(O)CNCCCCCCCNCC(O)COCC3O[C@@H]4OC(C)(C)O[C@@H]4[C@H]4OC(C)(C)O[C@@H]34)[C@H]3OC(C)(C)O[C@H]3[C@@H]2O1 (stereo not given in full)
2. CC1(C)O[C@H]2OC(COCC(O)CNCc3ccccc3)[C@@H]3OC(C)(C)O[C@@H]3[C@H]2O1 (stereo not given in full)
3. CC1(C)O[C@@H]2OC(COCC(O)CNCCCCCCCCCCCCNCC(O)COCC3O[C@@H]4OC(C)(C)O[C@@H]4[C@H]4OC(C)(C)O[C@@H]34)[C@H]3OC(C)(C)O[C@H]3[C@@H]2O1 (stereo not given in full)
4. CCCCCCCCCCCCCCCCNCC(O)COCC1O[C@@H]2OC(C)(C)O[C@@H]2[C@H]2OC(C)(C)O[C@@H]12 (stereo not given in full)
5. CC1(C)O[C@@H]2OC(COCC(O)CNCCCCCCCCCCNCC(O)COCC3O[C@@H]4OC(C)(C)O[C@@H]4[C@H]4OC(C)(C)O[C@@H]34)[C@H]3OC(C)(C)O[C@H]3[C@@H]2O1 (stereo not given in full)
6. CC1(C)O[C@H]2OC(COCC(O)CN3CCCC3)[C@@H]3OC(C)(C)O[C@@H]3[C@H]2O1 (stereo not given in full)

Output:
1. > 50 µg/mL
2. > 50 µg/mL
3. > 50 µg/mL
4. 25 µg/mL
5. > 50 µg/mL
6. > 50 µg/mL
